Documented self-splicing fitness (ln) across a set of sequences
assay: self-splicing fitness, log relative to wild type (ln ratio); higher = more splicing; Tetrahymena group I intron in knt gene, E. coli kanamycin selection, DiMSum; sequences stand for … in CUCUCU…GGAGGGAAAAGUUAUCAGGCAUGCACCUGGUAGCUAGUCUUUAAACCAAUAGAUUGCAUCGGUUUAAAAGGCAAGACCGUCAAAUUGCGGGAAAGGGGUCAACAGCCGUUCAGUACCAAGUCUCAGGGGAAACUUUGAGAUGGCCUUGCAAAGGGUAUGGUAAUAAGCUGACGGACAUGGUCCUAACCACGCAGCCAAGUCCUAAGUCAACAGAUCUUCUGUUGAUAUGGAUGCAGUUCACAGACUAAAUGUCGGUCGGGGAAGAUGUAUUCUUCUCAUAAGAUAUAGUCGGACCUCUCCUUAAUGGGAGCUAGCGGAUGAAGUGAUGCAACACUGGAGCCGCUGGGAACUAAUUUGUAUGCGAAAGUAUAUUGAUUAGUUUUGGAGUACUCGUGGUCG;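 also: selection with 25 µg/mL kanamycin versus none on LB agar overnight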
condition_label: 30 °C

For orientation, consider the following solved cases.
CGCUAGCAAUAUUACGGUGA; -2.28
UUGAAGCAAUAUUACGGCUC; -3.8
UCUCAGCAAUAUUACGCACC; -2.18
ACACAGCAAUAUUACGCCUU; -1.62
ACGUAGCAAUAUUACGUACG; -2.3

(Q) Given the sequence AGUCAGCAAUAUUACGACCA , what is its reported self-splicing fitness (ln)?
(A) -0.2

(Q) Given the sequence ACCAAGCAAUAUUACGUGAU , what is its reported self-splicing fitness (ln)?
(A) -2.46

(Q) Given the sequence GCCUAGCAAUAUUACGGUGA , what is its reported self-splicing fitness (ln)?
(A) -1.09

(Q) Given the sequence CUUCAGCAAUAUUACGACUU , what is its reported self-splicing fitness (ln)?
(A) -4.07

(Q) Given the sequence CAGAAGCAAUAUUACGCAGA , what is its reported self-splicing fitness (ln)?
(A) -2.59

(Q) Given the sequence UAUAAGCAAUAUUACGGCGC , what is its reported self-splicing fitness (ln)?
(A) -1.25

(Q) Given the sequence UAUCAGCAAUAUUACGCCGA , what is its reported self-splicing fitness (ln)?
(A) -1.32

(Q) Given the sequence GUUGAGCAAUAUUACGUGAC , what is its reported self-splicing fitness (ln)?
(A) -2.31

(Q) Given the sequence UGUUAGCAAUAUUACGGCCU , what is its reported self-splicing fitness (ln)?
(A) -0.213

(Q) Given the sequence GUUAAGCAAUAUUACGGUUA , what is its reported self-splicing fitness (ln)?
(A) -1.33

(Q) Given the sequence UAUAAGCAAUAUUACGGUCC , what is its reported self-splicing fitness (ln)?
(A) -0.922

====

assay: self-splicing fitness, log relative to wild type (ln ratio); higher = more splicing; Tetrahymena group I intron in knt gene, E. coli kanamycin selection, DiMSum; sequences stand for … in CUCUCU…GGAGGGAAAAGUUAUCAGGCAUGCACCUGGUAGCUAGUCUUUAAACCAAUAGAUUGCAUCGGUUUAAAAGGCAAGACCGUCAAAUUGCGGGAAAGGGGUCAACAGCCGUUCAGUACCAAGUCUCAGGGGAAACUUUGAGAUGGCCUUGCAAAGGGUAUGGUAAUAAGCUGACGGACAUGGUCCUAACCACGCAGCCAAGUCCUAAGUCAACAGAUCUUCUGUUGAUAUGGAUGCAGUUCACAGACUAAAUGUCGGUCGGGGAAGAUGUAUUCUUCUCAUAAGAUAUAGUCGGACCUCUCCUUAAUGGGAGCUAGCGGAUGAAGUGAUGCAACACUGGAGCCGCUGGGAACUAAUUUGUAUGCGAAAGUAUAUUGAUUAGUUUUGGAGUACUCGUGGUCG
condition_label: 37 °C
Documented self-splicing fitness (ln) across a set of sequences
Number, no unit, nothing else.

For orientation, consider the following solved cases.
GCAUAGCAAUAUUACGAGAG; -2.35
AGGCAGCAAUAUUACGUGUC; -2.58
GUAUAGCAAUAUUACGUCUU; 0.0317
CUCCAGCAAUAUUACGACGA; -2.5
GUAUAGCAAUAUUACGAUAU; -0.832

(Q) Given the sequence AACCAGCAAUAUUACGUUGU , what is its reported self-splicing fitness (ln)?
(A) -2.38

(Q) Given the sequence UAGUAGCAAUAUUACGUCGU , what is its reported self-splicing fitness (ln)?
(A) -2.81

(Q) Given the sequence CAAGAGCAAUAUUACGUGUG , what is its reported self-splicing fitness (ln)?
(A) -1.5

(Q) Given the sequence GAUUAGCAAUAUUACGUGAU , what is its reported self-splicing fitness (ln)?
(A) -1.07

====

Documented self-splicing fitness (ln) across a set of sequences
assay: self-splicing fitness, log relative to wild type (ln ratio); higher = more splicing; Tetrahymena group I intron in knt gene, E. coli kanamycin selection, DiMSum; sequences stand for … in CUCUCU…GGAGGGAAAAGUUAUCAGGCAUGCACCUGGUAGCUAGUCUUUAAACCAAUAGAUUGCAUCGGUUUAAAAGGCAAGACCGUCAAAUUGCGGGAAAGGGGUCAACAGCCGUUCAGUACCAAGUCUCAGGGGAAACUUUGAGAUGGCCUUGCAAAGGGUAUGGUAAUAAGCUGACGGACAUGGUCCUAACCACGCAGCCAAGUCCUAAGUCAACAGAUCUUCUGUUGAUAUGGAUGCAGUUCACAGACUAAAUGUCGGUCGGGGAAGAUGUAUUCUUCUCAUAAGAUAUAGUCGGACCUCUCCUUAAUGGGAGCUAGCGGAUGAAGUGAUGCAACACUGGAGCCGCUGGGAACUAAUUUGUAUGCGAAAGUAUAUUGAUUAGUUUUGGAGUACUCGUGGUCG
condition_label: 30 °C
Number, no unit, nothing else.

For orientation, consider the following solved cases.
AGGAAGCAAUAUUACGGCAU; -1.28
ACUAAGCAAUAUUACGAAUA; -2.99
UUAAAGCAAUAUUACGAUGU; -1.91
CCGGAGCAAUAUUACGUAGC; -2.74
AAUAAGCAAUAUUACGAUAG; -3.78
CGGGAGCAAUAUUACGCGAA; -2.47
UGAUAGCAAUAUUACGGUCG; -0.332
AUGAAGCAAUAUUACGGGGG; -3.12
AAAAAGCAAUAUUACGCUAA; -2.36
CGUUAGCAAUAUUACGGAGA; -2.64

(Q) Given the sequence GCGUAGCAAUAUUACGGAAG , what is its reported self-splicing fitness (ln)?
(A) -3.56

(Q) Given the sequence CACAAGCAAUAUUACGUUUG , what is its reported self-splicing fitness (ln)?
(A) -2.89

====

assay: self-splicing fitness, log relative to wild type (ln ratio); higher = more splicing; Tetrahymena group I intron in knt gene, E. coli kanamycin selection, DiMSum; sequences stand for … in CUCUCU…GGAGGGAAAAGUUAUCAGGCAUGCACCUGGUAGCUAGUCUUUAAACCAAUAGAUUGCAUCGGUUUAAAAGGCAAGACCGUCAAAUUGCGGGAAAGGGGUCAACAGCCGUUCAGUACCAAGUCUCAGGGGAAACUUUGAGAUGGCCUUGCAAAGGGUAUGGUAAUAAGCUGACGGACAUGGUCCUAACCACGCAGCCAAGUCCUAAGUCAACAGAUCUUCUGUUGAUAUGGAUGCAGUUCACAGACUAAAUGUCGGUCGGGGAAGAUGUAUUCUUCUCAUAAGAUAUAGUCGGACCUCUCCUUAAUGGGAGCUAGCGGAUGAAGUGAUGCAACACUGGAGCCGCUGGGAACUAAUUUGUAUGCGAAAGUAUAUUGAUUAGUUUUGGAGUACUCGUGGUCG
condition_label: 37 °C
Documented self-splicing fitness (ln) across a set of sequences
Number, no unit, nothing else.

For orientation, consider the following solved cases.
UGCUAGCAAUAUUACGCGGG; -2.38
CGAGAGCAAUAUUACGCUUG; -3.14
CUUCAGCAAUAUUACGGUUU; -2.55

# input for lookup
(Q) Given the sequence GUCAAGCAAUAUUACGAUCU , what is its reported self-splicing fitness (ln)?
(A) -1.04

====

assay: self-splicing fitness, log relative to wild type (ln ratio); higher = more splicing; Tetrahymena group I intron in knt gene, E. coli kanamycin selection, DiMSum; sequences stand for … in CUCUCU…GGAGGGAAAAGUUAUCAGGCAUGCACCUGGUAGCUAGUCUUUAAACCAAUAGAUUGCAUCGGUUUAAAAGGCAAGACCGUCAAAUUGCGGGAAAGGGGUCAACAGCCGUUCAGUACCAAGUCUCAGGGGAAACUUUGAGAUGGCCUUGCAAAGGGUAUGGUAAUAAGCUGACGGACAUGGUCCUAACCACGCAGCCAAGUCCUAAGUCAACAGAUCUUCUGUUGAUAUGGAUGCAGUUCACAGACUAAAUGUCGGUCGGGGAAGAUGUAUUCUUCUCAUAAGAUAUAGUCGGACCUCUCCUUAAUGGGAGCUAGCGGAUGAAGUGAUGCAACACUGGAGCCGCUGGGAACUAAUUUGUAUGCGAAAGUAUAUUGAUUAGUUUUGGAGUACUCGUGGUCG
condition_label: 37 °C
quantity_name: self-splicing fitness (ln)
Number, no unit, nothing else.

AGGAAGCAAUAUUACGUAUC; -2.88

# input for lookup
(Q) Given the sequence GGUCAGCAAUAUUACGUUUU , what is its reported self-splicing fitness (ln)?
(A) -0.202
